measured_property: pIC50
// returns pIC50 (minus log10 of molar concentration), number only

What is its pIC50 for AKT1 (Homo sapiens (Human), UniProt P31749)? Entry: CC(C)NC[C@@H](C(=O)N1CCN(c2ncnc3c2[C@H](C)OC(=O)N3)[C@H]2C[C@H]21)c1ccc(Cl)cc1 (single isomer, unassigned) [Isomer 2 of Example 3]
6.21

What is its pIC50 for AKT1 (Homo sapiens (Human), UniProt P31749)? Entry: CC(C)NC[C@@H](C(=O)N1CCN(c2ncnc3c2[C@H](C)OC(=O)N3)[C@H]2C[C@H]21)c1ccc(Cl)cc1 (single isomer, unassigned; isomer 4) [Isomer 4 of Example 3]
9.22

----------
Record: IC50 reported on AKT3 (Homo sapiens (Human)).
Sequence (Q9Y243 whole entry): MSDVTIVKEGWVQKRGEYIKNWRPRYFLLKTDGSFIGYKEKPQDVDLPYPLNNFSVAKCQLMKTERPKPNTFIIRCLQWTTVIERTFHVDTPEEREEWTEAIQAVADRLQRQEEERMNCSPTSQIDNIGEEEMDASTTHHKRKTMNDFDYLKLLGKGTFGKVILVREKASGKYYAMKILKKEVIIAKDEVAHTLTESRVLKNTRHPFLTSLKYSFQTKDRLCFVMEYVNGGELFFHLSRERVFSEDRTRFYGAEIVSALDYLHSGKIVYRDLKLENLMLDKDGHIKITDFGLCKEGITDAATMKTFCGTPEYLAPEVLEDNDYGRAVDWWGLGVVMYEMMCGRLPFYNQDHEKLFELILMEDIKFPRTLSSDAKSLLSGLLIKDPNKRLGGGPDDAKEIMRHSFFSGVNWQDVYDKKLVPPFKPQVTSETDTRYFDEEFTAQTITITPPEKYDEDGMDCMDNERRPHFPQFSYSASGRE
The reply should be a number in nM, with the unit left off.

Could you tell me which IC50 is on file for CC(C)NC[C@@H](C(=O)N1CCN(c2ncnc3c2[C@H](C)OC(=O)N3)[C@H]2C[C@H]21)c1ccc(Cl)cc1 (single isomer, unassigned) [Isomer 2 of Example 3] ?
89

Could you tell me which IC50 is on file for CC(C)NC[C@@H](C(=O)N1CCN(c2ncnc3c2[C@H](C)OC(=O)N3)[C@H]2C[C@H]21)c1ccc(Cl)cc1 (single isomer, unassigned; isomer 4) [Isomer 4 of Example 3] ?
0.12

Could you tell me which IC50 is on file for C[C@@H]1CC(=O)Nc2ncnc(N3CCN(C(=O)[C@H](CNC4CC4)c4ccc(Cl)cc4)[C@H]4C[C@H]43)c21 (single isomer, unassigned) [Isomer 1 of Example 1] ?
13
